target_system: α5β2γ2S GABAA-R (Rattus norvegicus, UniProt P18508+P19969)
Sequence (P19969 32-464 limits assumed): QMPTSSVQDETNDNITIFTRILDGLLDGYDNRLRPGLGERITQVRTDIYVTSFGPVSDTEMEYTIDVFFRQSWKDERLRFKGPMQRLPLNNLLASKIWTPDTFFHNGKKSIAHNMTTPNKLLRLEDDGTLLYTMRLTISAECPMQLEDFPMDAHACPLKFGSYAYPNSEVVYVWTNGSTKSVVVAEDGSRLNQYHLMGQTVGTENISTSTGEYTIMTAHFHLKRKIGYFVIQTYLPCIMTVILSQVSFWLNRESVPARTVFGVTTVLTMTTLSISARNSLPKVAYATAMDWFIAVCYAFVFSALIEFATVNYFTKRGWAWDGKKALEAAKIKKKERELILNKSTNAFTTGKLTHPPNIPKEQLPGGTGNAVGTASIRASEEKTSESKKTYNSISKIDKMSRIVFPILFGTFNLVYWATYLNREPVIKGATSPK
Sequence (P63138 25-474 partner limits assumed): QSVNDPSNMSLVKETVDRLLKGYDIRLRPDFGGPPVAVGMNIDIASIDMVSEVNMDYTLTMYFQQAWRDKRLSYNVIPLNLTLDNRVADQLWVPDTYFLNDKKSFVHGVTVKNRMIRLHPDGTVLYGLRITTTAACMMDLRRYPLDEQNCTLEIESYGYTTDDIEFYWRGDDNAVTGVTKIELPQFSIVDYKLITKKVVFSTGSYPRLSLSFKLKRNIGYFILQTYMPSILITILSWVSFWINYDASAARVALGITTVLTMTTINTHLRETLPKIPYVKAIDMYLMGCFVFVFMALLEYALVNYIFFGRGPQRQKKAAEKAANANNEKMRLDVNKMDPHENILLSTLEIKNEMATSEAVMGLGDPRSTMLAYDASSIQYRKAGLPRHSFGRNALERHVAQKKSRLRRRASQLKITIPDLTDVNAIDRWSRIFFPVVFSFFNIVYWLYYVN
Sequence (P18508 39-466): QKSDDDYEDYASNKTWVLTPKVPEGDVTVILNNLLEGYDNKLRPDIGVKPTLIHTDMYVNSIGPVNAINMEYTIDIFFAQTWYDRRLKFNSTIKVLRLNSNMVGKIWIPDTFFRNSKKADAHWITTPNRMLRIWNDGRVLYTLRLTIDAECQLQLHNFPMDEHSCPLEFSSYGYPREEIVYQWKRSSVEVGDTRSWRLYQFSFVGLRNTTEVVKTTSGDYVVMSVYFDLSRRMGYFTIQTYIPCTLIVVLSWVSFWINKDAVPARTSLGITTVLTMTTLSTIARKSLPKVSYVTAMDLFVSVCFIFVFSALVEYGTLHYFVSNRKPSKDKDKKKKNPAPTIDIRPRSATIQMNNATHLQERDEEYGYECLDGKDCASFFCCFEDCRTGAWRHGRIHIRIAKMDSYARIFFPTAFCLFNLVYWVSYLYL
measurement_protocol: biochemical
Format: binding
applied_conditions: [3H]Ro15-1788 displacement, n = 3, read-out: IC50
Protocol: HEK293 cells (CRL 1573, American type Culture Collection, Rockville, MD, USA) were cultured in Dulbecco's modified Eagle's medium (D-MEM, Invitrogen, Carlsbad, CA, USA) supplemented with 10% fetal bovine serum (Invitrogen, Carlsbad, CA, USA) and 1% MEM Non-Essential Amino Acids Solution (Invitrogen, Carlsbad, CA, USA). cDNAs encoding rat GABAA-R subunits were in the following vectors: α1 and α5 in pRc/CMV, α2, α3, γ2S and γ3 in pcDNA3 and β2 in pcDNA1. […]
endpoint_name: IC50 (µM)
Just the number please, in µM, no unit attached.

chemical_structure=O=C(c1ccccn1)c1cnn2c(-c3cc[n+]([O-])cc3)ccnc12 target_system="α5β2γ2S GABAA-R (Rattus norvegicus, UniProt P18508+P19969)" endpoint_name=IC50 val=22

Please give the measured IC50 for this molecule: `O=C(c1ccccn1)c1cnn2c(-c3ccncc3)ccnc12` 9.6
